assayTarget: Klenow (3′→5′ exo(−)) fragment of E. coli DNA polymerase (Escherichia coli, UniProt P00582, D355A/E357A)
Sequence (P00582 324-928 D355A/E357A limits assumed): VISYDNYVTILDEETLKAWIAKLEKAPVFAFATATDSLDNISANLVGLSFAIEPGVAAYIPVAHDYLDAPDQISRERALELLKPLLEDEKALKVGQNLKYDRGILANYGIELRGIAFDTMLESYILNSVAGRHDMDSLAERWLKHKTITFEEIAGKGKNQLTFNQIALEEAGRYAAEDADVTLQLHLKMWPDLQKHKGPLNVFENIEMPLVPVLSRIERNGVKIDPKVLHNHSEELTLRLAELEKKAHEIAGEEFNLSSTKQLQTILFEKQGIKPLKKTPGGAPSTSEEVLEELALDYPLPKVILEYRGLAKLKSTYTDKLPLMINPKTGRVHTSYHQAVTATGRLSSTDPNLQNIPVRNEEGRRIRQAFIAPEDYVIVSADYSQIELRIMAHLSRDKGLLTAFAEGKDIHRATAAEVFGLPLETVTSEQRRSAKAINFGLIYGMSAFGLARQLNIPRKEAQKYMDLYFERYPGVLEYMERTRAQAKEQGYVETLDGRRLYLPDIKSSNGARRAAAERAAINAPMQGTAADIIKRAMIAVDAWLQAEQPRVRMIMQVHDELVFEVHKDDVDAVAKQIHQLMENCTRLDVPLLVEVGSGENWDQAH
measurementContext: divalent cation 2.0 mM (CoCl2 1.0 mM) in Binding Buffer; 100 μM dCTP
measuredParameter: binding of Klenow exo(−) and dCTP to biosensor coated with ssDNA primer-template

[Ba+2].[Cl-].[Cl-] [BaCl2, barium chloride]    bound strongly
N.N.O=S(=O)(O)O [ammonium sulfate]    bound strongly
[Cl-].[Cl-].[Sr+2] [SrCl2, Strontium chloride]    bound strongly
[Cl-].[Cl-].[Zn+2] [Zn2+, zinc chloride]    transient peak

# ---- query molecule ----
## Input Let me know recorded binding of Klenow exo(−) and dCTP to biosensor coated with ssDNA primer-template for [Cl][Co][Cl] [Co2+, cobalt chloride] , thanks.
## Output transient peak
